# Experimental details: modulators of HCV replicon luciferase signal, primary screen, HCV replication inhibitor project, Huh7 cells, luciferase reporter (AID 1109);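 further: huh7 hepatoma cells harbouring a luciferase neomycin HCV replicon reporter; luciferase luminescence as measure of HCV replicon replication; test concentration not given here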
# Protocol conditions: 48 h, higher = more signal
Recorded metric: z-score

Below are worked cases with known answers.
C=CCNC(=O)[C@H]1[C@@H]2C(=O)O[C@@H](c3ccccc3)[C@@H](c3ccccc3)N2[C@@H](c2ccc(O)cc2)[C@]12C(=O)N(C(=O)OCCOC)c1ccc(C#CCNC(N)=O)cc12; -0.767
C=CCN1C(=O)[C@]2(O[C@H](CCO)[C@@H]([Si](C)(C)c3ccc(OC)cc3)[C@@H]2C)c2cc(N3CCCCC3=O)ccc21; -4.11
CN1C(=O)C2C=CC(C(O)C3CCCCC3)N(Nc3ccc([N+](=O)[O-])cc3[N+](=O)[O-])C2C1=O (stereo not given); -0.613

Entry `CCCCC=C[C@@H](NC(=O)Oc1cccc(C(F)(F)F)c1)c1ccccc1` ; z-score = -1.07

Entry `COCCOC(=O)N1C(=O)[C@@]2(c3cc(C#CCCO)ccc31)[C@H](c1ccc(OCCO)cc1)N1[C@H](c3ccccc3)[C@H](c3ccccc3)OC(=O)[C@H]1[C@@H]2C(=O)N1CCN(c2ncccn2)CC1` ; z-score = -1.46

Entry `C[C@@H]1ON(c2cccc(C(=O)OC(C)(C)C)c2)[C@H](c2ccc(Br)cc2)[C@H]1C(=O)N1C(=O)OC[C@H]1Cc1ccccc1` ; z-score = -1

Entry O=C1OCCC=C[C@H]2OC34C=CCN(CCN5CCOCC5)C(=O)[C@H]3N(CCCCCCO)C(=O)[C@@H]4C12 (stereo not given in full) ; z-score = -0.135

Entry `COCCOC(=O)N1C(=O)[C@@]2(c3cc(C#CC4=CCCCC4)ccc31)[C@H](c1ccc(O)cc1)N1[C@H](c3ccccc3)[C@H](c3ccccc3)OC(=O)[C@H]1[C@@H]2C(N)=O` ; z-score = -0.696

* * *

The following compounds are shown together with reported composite z-score values.
# Target desc: Calmodulin-1 (Homo sapiens) (UniProt P0DP23)
# Experimental details: CALM1 binders on microarrays, EGTA buffer, profiling panel, biochemical, small-molecule microarray, Cy5-labelled CALM1 (AID 1111);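 further: labelled calmodulin applied in Tris saline Tween buffer holding calcium plus EGTA and DTT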
# Protocol conditions: Cy5-CALM1 binding fluorescence, higher = more signal
// return a plain number; no unit text

Below are worked cases with known answers.
COC(=O)C(CC#Cc1ccc2c(c1)[C@]1(C(=O)N2)[C@H](c2ccc(O)cc2)N2[C@H](c3ccccc3)[C@H](c3ccccc3)OC(=O)[C@H]2[C@@H]1C(=O)Nc1nc2ccccc2s1)C(=O)OC; 1.26
COC(=O)[C@@]1(Cc2ccc(F)cc2)[C@H]2c3cc(C(=O)N4CCCC4)n(Cc4ccc(C)o4)c3C[C@H]2CN1C(=O)c1ccccc1; 1.48
C=CCOC(=O)[C@H]1[C@@H]2C(=O)O[C@@H](c3ccccc3)[C@@H](c3ccccc3)N2[C@@H](c2ccc(OCCOC(=O)[C@@H]3C[C@@H]4C(=O)N[C@@H](CCCC[N+](C)(C)C)C(=O)N4[C@@H]3c3ccc(O)cc3)cc2)[C@]12C(=O)Nc1ccccc12; -0.0632
C[C@@]1([C@@H](NC(=O)c2ccccc2)c2ccc(-c3ccccc3)cc2)C[C@H]1C1CCCCC1; 1.32
COc1ccc([C@H]2C[C@H]3C(Br)=C[C@@H]2C(=O)[C@]32CO2)cc1; -0.0833

Entry `C=C(COC)/C(=C/C[C@H](OC(=O)c1ccncc1)c1ccc(OCCO)cc1)c1cnc2ccccc2c1` ; composite z-score = 0.447

Entry `CC(C)C[C@@H]1NC(=O)[C@H]2C[C@@H](C(=O)NCCCCCCN(C)C)[C@@H](c3ccc(O)cc3)N2C1=O` ; composite z-score = -0.631

* * *

# Target desc: Torsin-1A-interacting protein 1 (Homo sapiens) (UniProt Q5JTV8)
# Sequence (Q5JTV8 whole entry, looked up): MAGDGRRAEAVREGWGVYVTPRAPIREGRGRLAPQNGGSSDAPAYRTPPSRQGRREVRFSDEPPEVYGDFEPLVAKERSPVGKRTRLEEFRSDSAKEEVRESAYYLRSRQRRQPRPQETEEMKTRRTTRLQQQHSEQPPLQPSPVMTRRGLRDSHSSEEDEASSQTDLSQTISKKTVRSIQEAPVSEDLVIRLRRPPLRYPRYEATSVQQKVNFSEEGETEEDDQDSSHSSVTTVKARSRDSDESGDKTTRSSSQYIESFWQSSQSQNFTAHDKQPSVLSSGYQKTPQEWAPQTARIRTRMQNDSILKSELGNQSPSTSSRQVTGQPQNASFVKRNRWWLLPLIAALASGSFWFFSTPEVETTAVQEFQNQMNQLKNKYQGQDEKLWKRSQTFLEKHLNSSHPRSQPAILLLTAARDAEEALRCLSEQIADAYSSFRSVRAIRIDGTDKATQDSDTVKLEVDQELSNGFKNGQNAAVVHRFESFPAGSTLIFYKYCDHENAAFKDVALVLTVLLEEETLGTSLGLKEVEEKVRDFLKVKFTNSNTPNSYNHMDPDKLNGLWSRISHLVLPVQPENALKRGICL
# Experimental details: LAP1 binders from COS7 cell lysate, primary screen, small-molecule microarray, 635/667 nm fluorescence (AID 1116)
# Protocol conditions: COS7-hLAP1 lysate binding, 635 nm fluorescence, higher = more signal
The following compounds are shown together with reported composite z-score values.

Entry `CCCC=C(CCC)[C@@H](NS(=O)(=O)c1cccs1)c1ccc(C(=O)OC)cc1` ; composite z-score = 0.554

Entry `CN(C)C(=O)[C@@]1(Cc2ccccc2)N=C(c2ccc(OCCCO)cc2)O[C@H]1c1ccccc1N=[N+]=[N-]` ; composite z-score = 0.491

Entry `C=CCOC(=O)[C@@H]1[C@H]2C(=O)O[C@H](c3ccccc3)[C@H](c3ccccc3)N2[C@H](c2ccc(OCCOC(=O)[C@@H]3C[C@@H]4C(=O)N5CCC[C@H]5C(=O)N4[C@@H]3c3ccc(O)cc3)cc2)[C@@]12C(=O)Nc1ccc(I)cc12` ; composite z-score = 1.4

* * *

# Target desc: Follistatin (Homo sapiens)
# Experimental details: follistatin binders on small-molecule microarrays, primary screen, biochemical, small-molecule microarray, 635/667 nm fluorescence (AID 1132)
# Protocol conditions: FST binding, 635 nm fluorescence, higher = more signal
Recorded metric: composite z-score
// return a plain number; no unit text

Below are worked cases with known answers.
CO[C@H]1O[C@H](CO)[C@@H](OC(=O)Nc2ccc(Br)cc2)[C@H](OC(=O)c2cc3ccccc3[nH]2)[C@H]1OC(=O)c1cc2ccccc2[nH]1; 0.729
O=C1O[C@@H](c2ccccc2)[C@@H](c2ccccc2)N2[C@@H](c3ccccc3OCCO)[C@]3(C(=O)Nc4ccc(C#CC5=CCCCC5)cc43)[C@@H](C(=O)Nc3nc4ccccc4s3)[C@H]12; 1.12
C=C(CCCC)C(=O)CC[C@H](OC(=O)c1cccnc1)c1ccccc1OCCO; 0.537
C=CCC(OC(C)=O)[C@@H]1[C@@H](N(Cc2ccc(-c3cccc(C(F)(F)F)c3)o2)C(=O)Cc2ccc(F)cc2)c2cc(OCCCO)ccc2N1C(=O)Cc1ccc(OC)cc1 (stereo not given in full); 0.346

Entry O=C1OCCC/C=C\[C@H]2OC34C=CCN(Cn5nnc6ccccc65)C(=O)[C@H]3N(CCCCCCO)C(=O)[C@@H]4C12 (stereo not given in full) ; composite z-score = -0.686

Entry `C#CCN(CC=C(C)C)[C@H](CO)c1ccccc1` ; composite z-score = 0.391

Entry `COc1ccc(C#Cc2ccc3c(c2)[C@]2(C(=O)N3)[C@H](c3ccccc3OCCO)N3[C@H](c4ccccc4)[C@H](c4ccccc4)OC(=O)[C@H]3[C@@H]2C(=O)O)cc1` ; composite z-score = 0.694

Entry `C#CCNC(=O)[C@H](Cc1ccccc1)NC(=O)CCC(=O)O` ; composite z-score = -1.69

Entry `C=CCNC(=O)[C@@H]1[C@H]2C(=O)O[C@H](c3ccccc3)[C@H](c3ccccc3)N2[C@H](c2ccccc2OCCO)[C@@]12C(=O)N(C(=O)OCCOC)c1ccc(C#CCNC(N)=O)cc12` ; composite z-score = 0.864

Entry O=C1OCCC/C=C\[C@H]2OC34C=CCN(CCN5CCOCC5)C(=O)[C@H]3N(CCCO)C(=O)[C@@H]4C12 (stereo not given in full) ; composite z-score = -0.803

Entry `COc1ccc([Si](C)(C)[C@H]2[C@H](CC(=O)N3CCC[C@H]3CO)O[C@@]3(C(=O)N(Cc4cccc(N5C(=O)c6cccc7cccc5c67)c4)c4ccccc43)[C@@H]2C)cc1` ; composite z-score = 1.17

Entry COc1cc2c(cc1O)C(C1CC1)N(Cc1cc3c(cc1Br)OCO3)CC2 (stereo not given) ; composite z-score = -0.774

Entry `C=C(CCCC)/C(=C/C[C@@H](OC(C)=O)c1ccccc1OCCO)c1cnc2ccccc2c1` ; composite z-score = 1.31

Entry `[N-]=[N+]=NCc1ccccc1C[C@]1(C(=O)N2CCOCC2)N=C(c2ccc(OCCCO)cc2)O[C@H]1c1ccccc1N=[N+]=[N-]` ; composite z-score = 1.33

Entry CCOC(=O)C1=CCC(c2ccc(C)cc2)N(S(=O)(=O)c2ccc(C)cc2)C1 (stereo not given) ; composite z-score = 0.523

* * *

# Experimental details: A549 cell viability effects, profiling panel, calcein-AM fluorescence, 48 h, basal (AID 1162); further: test concentration not given here
# Protocol conditions: higher = more signal
Grouping rule (z-score): class 1 = under -0.5, class 2 = from -0.5 up to 0.3, class 3 = 0.3 and over

[N-]=[N+]=NCc1ccccc1[C@@H]1OC(c2ccc(OCCCO)cc2)=N[C@]1(CCS(=O)(=O)c1ccccc1)C(=O)NCCN1CCOCC1; class 3
COc1cc2c(cc1O)C(C1CC1)N(Cc1cc3c(cc1Br)OCO3)CC2 (stereo not drawn); class 1
CN(C)CCCNC(=O)[C@@]1(c2ccc([N+](=O)[O-])cc2)CC(=O)N(C2CCCCC2)[C@@H]1c1ccc(CO)cc1; class 2

Class for `COc1ccc([Si](C)(C)[C@H]2[C@H](CCn3cc([C@H](O)c4ccccc4)nn3)O[C@@]3(C(=O)N(Cc4cccc(N5CCOC5=O)c4)c4ccccc43)[C@@H]2C)cc1` ? class 3

Class for CCOC1=C2C(CN(S(=O)(=O)c3ccc(C)cc3)C2c2ccc(C)cc2)C2C(=O)N(c3ccccc3)C(=O)C2C1 (stereo not drawn) ? class 1

Class for `O=C1O[C@H](c2ccccc2)[C@H](c2ccccc2)N2[C@H]1[C@@H](C(=O)NC[C@H](O)c1ccccc1)[C@]1(C(=O)Nc3ccccc31)[C@H]2c1ccc(OCCO)cc1` ? class 2

Class for `O=C(NCc1ccccc1)[C@@]1(CCS(=O)(=O)c2ccccc2)N=C(c2ccc(OCCCO)cc2)O[C@H]1c1ccccc1` ? class 3

Class for `COCCOC(=O)N1C(=O)[C@@]2(c3cc(C#CCNC(N)=O)ccc31)[C@H](C(=O)NC[C@H](O)c1ccccc1)[C@H]1C(=O)O[C@H](c3ccccc3)[C@H](c3ccccc3)N1[C@@H]2c1ccccc1OCCO` ? class 3

Class for `COC(=O)[C@@]1(Cc2ccc(OC)cc2)[C@H]2c3cc(C(=O)N4CCCC4)n(Cc4ccccc4)c3C[C@H]2CN1C(=O)c1ccccc1` ? class 1

Class for `CN(C)C(=O)[C@]1(Cc2ccccc2N=[N+]=[N-])N=C(c2ccc(OCCCO)cc2)O[C@@H]1c1ccccc1` ? class 1

Class for O=C1NC(=O)C2C1C=CC(C(O)c1ccccc1)N2Nc1ccc(Cl)cc1Cl (stereo not drawn) ? class 2

Class for [N-]=[N+]=NCc1ccccc1C[C@@]1(C(=O)NCC(O)CO)N=C(c2ccc(OCCCO)cc2)O[C@@H]1c1ccccc1N=[N+]=[N-] (stereo partly drawn) ? class 1
